Provenance of the data: PubChem BioAssay AID2810

assay: modulators of CD8 T cell-vesicle binding, confirmation, cherry-picked primary hits, two concentrations (AID 2810); settings: 2C CD8+ T cell-vesicle binding, flow cytometry; at 15.4 µM;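 note: lower values mean blocking of vesicle binding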
The campaign covered roughly 1,200 compounds. About 65 (5%) were called active.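 Rule for the calls: active = at either tested dose, response and 90th-percentile vesicle-stain brightness of CD8 cells under set limits and under 9% cells vesicle-bound; inactive = the rest.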 What follows is part of a selection rich in actives, with near analogues and random picks from the rest.
Outcomes you can answer with include only these: Y (active), N (inactive)

Consider the following illustrative entries.
COc1ccccc1CNC(=O)CN(Cc1ccc(Cl)cc1)S(C)(=O)=O    N
COc1ccccc1CNC(=O)COc1ccc(C)cc1    Y
Cc1ccccc1CS(=O)(=O)CCC(=O)N1CCN(c2ccc(N3CCOCC3)nn2)CC1    Y
COc1ccccc1CNC(=O)c1ccc(N(C)S(=O)(=O)c2ccc(C)cc2)cc1    Y
COc1ccccc1CNC(=O)C1CCC1    N

Next item in the queue.
Recorded call for Cc1ccsc1C(=O)OCC(=O)N1CCN(c2ccccc2)CC1 ?
N

###

Recorded measurements of double positive events, one per entry
assay: modulators of CD8 T cell-vesicle binding, confirmation, cherry-picked primary hits, two concentrations (AID 2810); conditions: 2C CD8+ T cell-vesicle binding, flow cytometry; CD8+/vesicle+ events; at 15.4 µM; stronger effect = lower value;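 note: lower values mean blocking of vesicle binding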
The whole screen tested about 1,200 compounds, of which about 65 (5%) were called active. The entries come from a sample that favours actives as a whole.
The figure you give is taken to be in %; do not add the unit.

Some molecules with recorded double positive events:
c1ccc2c(c1)COC(CN1CCCCC1)OC2    10.2
COc1ccc(Cl)cc1NS(=O)(=O)c1cccc(C(=O)NCC(C)(C)N2CCOCC2)c1    18.3
C=CCNC(=O)c1c(Cl)nc(C)c([N+](=O)[O-])c1C    11.5
O=C(Cn1cc(C(F)(F)F)cc(Cl)c1=O)NCCc1ccc(Cl)cc1Cl    1.7

Indicate its recorded double positive events; the molecule in question is COC(=O)CN1C(=S)N(C)C(=O)C1CC(=O)Nc1ccccc1 (stereo unspecified)
12.8

Query double positive events for Cc1c(C(=O)NCCSCc2c(F)cccc2Cl)cnn1-c1ccc(Cl)cc1
1.6

###

assay: modulators of CD8 T cell-vesicle binding, confirmation, cherry-picked primary hits, two concentrations (AID 2810); conditions: 2C CD8+ T cell-vesicle binding, flow cytometry; response; at 7.7 µM;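 note: lower values mean blocking of vesicle binding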;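 for percent response (vesicle binding): ratio of mean FL2 vesicle stain of CD8+ cells to that row's control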
Out of some 1,200 compounds screened, about 65 (5%) were called active. The list comes from a sample in which actives are over-represented; it also holds close analogues and randomly drawn compounds.
percent response (vesicle binding) for assorted compounds
Expressed in %, but write only the number.

O=C(NCc1ccncc1)C(=O)NCC(c1ccco1)N1CCN(c2ccccc2F)CC1 (stereo unspecified)    276
Cc1cc(C)c(C(=O)N2CCCC(N3CCN(c4ccc(F)cc4)CC3)C2)o1 (stereo unspecified)    688

Annotate the compound O=S(=O)(NN=C1CCCCCCC1)c1ccc(Br)cc1 with its measured percent response (vesicle binding).
120

Quick one: give measured percent response (vesicle binding) for CC(C)(C)NC(=O)CON=C1c2ccccc2-c2ccccc21
203

Identify the reported percent response (vesicle binding) for the following entry. Cc1ccccc1/C(N)=N/OC(=O)c1cccs1
217

Input CC(C)(C)NC(=O)COc1ccc(CNCc2cccnc2)cc1 , output reported percent response (vesicle binding).
334

###

assay: modulators of CD8 T cell-vesicle binding, confirmation, cherry-picked primary hits, two concentrations (AID 2810); conditions: 2C CD8+ T cell-vesicle binding, flow cytometry; at 15.4 µM;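 note: lower values mean blocking of vesicle binding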
The whole screen tested about 1,200 compounds, of which about 65 (5%) were called active.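 Rule for the calls: active = at either tested dose, response and 90th-percentile vesicle-stain brightness of CD8 cells under set limits and under 9% cells vesicle-bound; inactive = the rest.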 The full list was thinned out, with actives kept by preference.
Return exactly one item of 1 for active, -1 for inactive

Cc1cc(C)cc(NC(=O)C(=O)NCCCN2CCCC2=O)c1    -1

We now examine a further compound.
I'd appreciate the recorded outcome for COc1ccc(CCCC(=O)NC(C)c2ccccc2)cc1 (stereo unspecified) from this test.
-1
